assay-comment: Inhibition constant to displace [3H]-NPY from rat brain membrane after treatment with 500 evaluated
Assay type: tissue-based
quantity-kind: Ki (µM)

[[record]]
compound = "N/C(=N\\CCNC(=O)C(N)Cc1ccc(OCc2c(Cl)cccc2Cl)cc1)NCCCCCCN/C(N)=N/CCNC(=O)C(N)Cc1ccc(OCc2c(Cl)cccc2Cl)cc1 (stereo unspecified)"
quantity_kind = "Ki"
experimental_result = 35.5

